assay system: AAK1 (Homo sapiens)
Sequence (Q2M2I8 whole entry): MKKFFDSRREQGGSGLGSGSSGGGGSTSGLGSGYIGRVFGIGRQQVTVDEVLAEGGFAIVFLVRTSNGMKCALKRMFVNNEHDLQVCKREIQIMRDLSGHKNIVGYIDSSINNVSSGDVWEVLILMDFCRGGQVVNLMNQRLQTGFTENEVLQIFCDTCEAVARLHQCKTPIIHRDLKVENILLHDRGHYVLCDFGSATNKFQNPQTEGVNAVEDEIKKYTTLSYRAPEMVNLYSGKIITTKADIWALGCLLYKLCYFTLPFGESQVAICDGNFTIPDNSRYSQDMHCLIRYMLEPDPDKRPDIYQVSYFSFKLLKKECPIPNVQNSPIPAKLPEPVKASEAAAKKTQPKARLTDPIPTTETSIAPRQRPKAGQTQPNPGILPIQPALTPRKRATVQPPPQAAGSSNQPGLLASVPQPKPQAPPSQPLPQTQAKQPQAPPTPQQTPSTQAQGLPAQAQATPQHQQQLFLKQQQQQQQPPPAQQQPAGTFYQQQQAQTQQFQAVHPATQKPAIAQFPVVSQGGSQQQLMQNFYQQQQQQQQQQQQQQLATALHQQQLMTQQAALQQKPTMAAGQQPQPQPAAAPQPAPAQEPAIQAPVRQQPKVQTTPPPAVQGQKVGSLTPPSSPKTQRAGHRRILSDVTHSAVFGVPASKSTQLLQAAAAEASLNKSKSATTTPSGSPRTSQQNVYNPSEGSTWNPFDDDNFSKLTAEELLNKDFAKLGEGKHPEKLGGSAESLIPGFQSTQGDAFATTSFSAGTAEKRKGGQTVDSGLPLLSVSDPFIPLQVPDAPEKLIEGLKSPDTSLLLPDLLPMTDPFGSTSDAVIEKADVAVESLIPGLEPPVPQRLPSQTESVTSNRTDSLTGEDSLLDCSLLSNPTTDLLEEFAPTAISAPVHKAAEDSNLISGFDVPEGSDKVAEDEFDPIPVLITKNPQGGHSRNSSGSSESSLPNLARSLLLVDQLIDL
measurement notes: biochemical
Set-up: species or system HEK293/K-562/placenta mixed human extract; Kinobeads chemoproteomic competition binding, quantified by TMT LC-MS/MS, dose response up to 20 uM
quantity measured: IC50

Per the records, this compound ( COc1nc(N[C@H]2CC[C@H](NS(=O)(=O)CC(C)C)CC2)nc2[nH]nc(N3CCOC[C@H]3C)c12 ) has IC50 equal to ≥ 20 µM

* * *

assay system: MAP4K4 (Homo sapiens)
Sequence (O95819 whole entry): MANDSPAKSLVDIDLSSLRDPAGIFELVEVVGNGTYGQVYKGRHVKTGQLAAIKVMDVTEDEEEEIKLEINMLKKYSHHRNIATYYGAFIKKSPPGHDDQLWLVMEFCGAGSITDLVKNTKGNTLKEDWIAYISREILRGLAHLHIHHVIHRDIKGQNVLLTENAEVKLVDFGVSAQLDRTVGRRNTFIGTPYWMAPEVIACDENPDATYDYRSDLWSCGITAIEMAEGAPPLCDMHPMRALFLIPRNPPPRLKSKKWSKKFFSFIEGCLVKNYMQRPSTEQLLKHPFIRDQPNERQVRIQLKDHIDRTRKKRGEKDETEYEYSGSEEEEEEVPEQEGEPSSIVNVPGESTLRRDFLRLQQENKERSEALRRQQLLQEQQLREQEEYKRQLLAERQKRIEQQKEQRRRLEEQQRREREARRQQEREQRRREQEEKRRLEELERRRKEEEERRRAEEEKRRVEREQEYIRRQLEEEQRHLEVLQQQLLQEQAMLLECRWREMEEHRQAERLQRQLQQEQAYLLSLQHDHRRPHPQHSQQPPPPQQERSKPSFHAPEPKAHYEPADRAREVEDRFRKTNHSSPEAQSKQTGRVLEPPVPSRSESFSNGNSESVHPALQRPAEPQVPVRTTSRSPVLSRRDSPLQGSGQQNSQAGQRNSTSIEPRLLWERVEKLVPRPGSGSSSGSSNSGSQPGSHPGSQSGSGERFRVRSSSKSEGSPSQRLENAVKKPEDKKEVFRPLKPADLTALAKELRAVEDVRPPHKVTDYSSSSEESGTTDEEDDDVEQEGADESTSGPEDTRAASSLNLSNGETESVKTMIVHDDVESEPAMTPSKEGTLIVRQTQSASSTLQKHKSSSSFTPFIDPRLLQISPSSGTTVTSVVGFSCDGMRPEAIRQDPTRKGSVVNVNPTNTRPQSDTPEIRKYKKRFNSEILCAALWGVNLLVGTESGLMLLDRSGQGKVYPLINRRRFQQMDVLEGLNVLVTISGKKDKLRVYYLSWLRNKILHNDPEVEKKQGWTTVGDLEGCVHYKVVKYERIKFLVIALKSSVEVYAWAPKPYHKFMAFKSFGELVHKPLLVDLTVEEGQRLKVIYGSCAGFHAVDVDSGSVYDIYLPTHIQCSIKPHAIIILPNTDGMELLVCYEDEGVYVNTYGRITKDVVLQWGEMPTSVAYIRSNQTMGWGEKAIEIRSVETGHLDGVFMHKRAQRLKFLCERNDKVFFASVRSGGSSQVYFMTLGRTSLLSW
measurement notes: biochemical
Parameters: species or system HEK293/K-562/placenta mixed human extract; Kinobeads chemoproteomic competition binding, quantified by TMT LC-MS/MS, dose response up to 20 uM
pIC50: −log10 of the molar value.
quantity measured: pIC50

For COc1ccccc1-c1n[nH]c2nc(N[C@H]3CC[C@H](NS(=O)(=O)CCC(F)(F)F)CC3)nc(OC)c12 [compound 31] the compound record lists pIC50 as ≤ 4.70
